Test: TOX21_p53_BLA_p3_viability: Viability Assessment in the Tox21 HCT-116 p53 Agonism Beta-lactamase Assay, Phase 3 (AID 2283593);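 further: cells exposed to compound for 16 h before reading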
Inconclusive results are not listed. The source made the active and inactive calls. How the source made its calls: active means hit-call score of the fitted dose curve at least 0.9, where 1 is the maximum; inconclusive means response in the unintended direction; inactive means score below 0.9.
Choose one outcome from this list and give only that: Y (active), N (inactive)

Example cases with answers are listed next.
{"COMPOUND": "CCN(CC)CCOC(=O)c1ccc(N)cc1", "QUALITATIVE LABEL": "N"}
{"COMPOUND": "NCCOCCO", "QUALITATIVE LABEL": "N"}
{"COMPOUND": "CC(C)(C#N)c1cc(Cn2cncn2)cc(C(C)(C)C#N)c1", "QUALITATIVE LABEL": "N"}
{"COMPOUND": "C/C=C(\\C)C(=O)OCc1ccccc1", "QUALITATIVE LABEL": "N"}
{"COMPOUND": "C=C(C)C(=O)O", "QUALITATIVE LABEL": "N"}

[ask] What is the recorded call for this compound in the test? CN(CCOc1ccc(CC2SC(=O)NC2=O)cc1)c1ccccn1 (stereo not drawn)
[reply] N

[ask] What is the recorded call for this compound in the test? CN1[C@@H]2CC(OC(=O)[C@H](CO)c3ccccc3)C[C@H]1[C@@H]1O[C@@H]12 (stereo partly drawn)
[reply] N

[ask] What is the recorded call for this compound in the test? Nc1ccc(S(N)(=O)=O)cc1
[reply] N

[ask] What is the recorded call for this compound in the test? CCCC(=O)c1cc(O)c(O)cc1O
[reply] N

[ask] What is the recorded call for this compound in the test? CN(C)C(=N)N=C(N)N
[reply] N
